- TARGET_DESC: SGK2 (human)
- PROTOCOL_DESCRIPTION: split-luciferase competition binding
- STATED_CONDITIONS: compound 10.0 µM
Recorded inhibition, one value per entry.
MEASURE_NAME: inhibition

SAMPLE_SMILES: O=C(Nc1cc(C(F)(F)F)cc(C(F)(F)F)c1)c1cc(Cl)ccc1O
TARGET_DESC: SGK2 (human)
MEASURE_NAME: inhibition
READING: 0%

SAMPLE_SMILES: CCN(CC)CCNC(=O)c1c(C)[nH]c(/C=C2\C(=O)Nc3ccc(F)cc32)c1C
TARGET_DESC: SGK2 (human)
MEASURE_NAME: inhibition
READING: 44%

SAMPLE_SMILES: C=CC(=O)c1ccc2ccccc2c1
TARGET_DESC: SGK2 (human)
MEASURE_NAME: inhibition
READING: 0%

SAMPLE_SMILES: NC(=O)c1ccc(-c2nc(-c3ccccn3)c(-c3ccc4c(c3)OCCO4)[nH]2)cc1
TARGET_DESC: SGK2 (human)
MEASURE_NAME: inhibition
READING: 3%

SAMPLE_SMILES: CN1CCC(Nc2ncc3ncnc(Nc4ccc(F)c(Cl)c4)c3n2)CC1
TARGET_DESC: SGK2 (human)
MEASURE_NAME: inhibition
READING: 0%

SAMPLE_SMILES: Brc1c(Br)c(Br)c2[nH]nnc2c1Br
TARGET_DESC: SGK2 (human)
MEASURE_NAME: inhibition
READING: 0%
